System: luciferase (Luc) mRNA
Assay: Luc expression, whole body bioluminescence after intravenous administration to mice
Type: in vivo
Conditions: intravenous, 0.5 mpk
observable: Fold increase in Luc expression relative to MC3, Intravenous (0.5 mpk dose)

| structure string | value reported |
| --- | --- |
| CCCCCCCCCOC(=O)CCCN(CCO)CCCCCCCC(=O)OC(CCCCCCCC)CCCCCCCC | 4.24 |
| CCCCCCCCC(CCCCCCCC)OC(=O)CCCCCCCN(CCO)CCCCCCCC(=O)OC(CCCCCCCC)CCCCCCCC | 1.03 |
| CCCCCCCCCOC(=O)CCCCCCCN(CCCCO)CCCCCCCC(=O)OC(CCCCCCCC)CCCCCCCC | 0.80 |
| CCCCCCCCCN(CCO)CCCCCCCC(=O)OC(CCCCCCCC)CCCCCCCC | 2.24 |
| CCCCCCCCCOC(=O)CCCCCCCN(CCO)CCCCCCCC(=O)OC(CCCCCCCC)CCCCCCCC | 3.23 |
